Molecular target: FGF14:Nav1.6 C-tail complex (Homo sapiens, UniProt Q92915+Q9UQD0)
Construct: polymerase chain reaction (PCR) amplification of the FGF14 open reading frame (nt 1–855); C-terminal fragment of Nav1.6 (amino acids 1763–1976) fused with CD4ΔC-tail (amino acids 1–395); expressed in transfected cells
Sequence (Q92915 1-252 isoform Q92915-2): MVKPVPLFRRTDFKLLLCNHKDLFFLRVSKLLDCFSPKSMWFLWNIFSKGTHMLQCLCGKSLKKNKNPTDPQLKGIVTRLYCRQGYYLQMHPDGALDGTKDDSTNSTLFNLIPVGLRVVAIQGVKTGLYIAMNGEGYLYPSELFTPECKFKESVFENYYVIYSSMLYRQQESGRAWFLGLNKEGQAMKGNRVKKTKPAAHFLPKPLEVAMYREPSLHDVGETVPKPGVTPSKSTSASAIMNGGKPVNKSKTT
Sequence (Q9UQD0 1763-1976 limits assumed): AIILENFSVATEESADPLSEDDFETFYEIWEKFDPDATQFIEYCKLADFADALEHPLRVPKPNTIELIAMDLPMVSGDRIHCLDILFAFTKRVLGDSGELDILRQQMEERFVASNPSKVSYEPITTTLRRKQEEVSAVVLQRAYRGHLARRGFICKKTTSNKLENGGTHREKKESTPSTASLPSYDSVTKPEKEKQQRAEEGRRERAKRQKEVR
Test: Split-luciferase complementation assay (LCA) in Clone V double stable HEK293 cells
Format: cell-based
Details: average of Set 1 and Set 2; normalized to 0.3% DMSO controls
# Lookup of reported Split Luciferase Assay %Lum Avg keyed by entry
Numeric only. Scale: %

Observe how each entry below is paired with its result.
[[record]]
compound = "CCCCCCCCc1ccc(CCC(N)(CO)CO)cc1"
test_target = "FGF14:Nav1.6 C-tail complex (Homo sapiens, UniProt Q92915+Q9UQD0)"
outcome_measure = "Split Luciferase Assay %Lum Avg"
numeric_value = 103.20

[[record]]
compound = "CC(=O)O[C@]1(C(C)=O)CC[C@H]2[C@@H]3C=C(C)C4=CC(=O)CC[C@]4(C)[C@H]3CC[C@@]21C [Megestrol acetate]"
test_target = "FGF14:Nav1.6 C-tail complex (Homo sapiens, UniProt Q92915+Q9UQD0)"
outcome_measure = "Split Luciferase Assay %Lum Avg"
numeric_value = 143.88


Challenge: Given the compound O=C(CCCCCCC(=O)Nc1ccccc1)NO , what is its reported Split Luciferase Assay %Lum Avg?
Response given: 90.86

Challenge: Given the compound Sc1ncnc2nc[nH]c12 , what is its reported Split Luciferase Assay %Lum Avg?
Response given: 115.59

Challenge: Given the compound Cn1cc(/C=C2\C(=O)Nc3cccnc32)c2ccccc21 , what is its reported Split Luciferase Assay %Lum Avg?
Response given: 82.80

Challenge: Given the compound COc1ccc2c(c1OC)N=C(NC(=O)c1cccnc1)N1CCN=C21 , what is its reported Split Luciferase Assay %Lum Avg?
Response given: 92.26

====

Target: FGF14:Nav1.6 C-tail complex (Homo sapiens, UniProt Q92915+Q9UQD0)
Construct: polymerase chain reaction (PCR) amplification of the FGF14 open reading frame (nt 1–855); C-terminal fragment of Nav1.6 (amino acids 1763–1976) fused with CD4ΔC-tail (amino acids 1–395); expressed in transfected cells
Assay: Split-luciferase complementation assay (LCA) in Clone V double stable HEK293 cells
Type: cell-based
Conditions: CC_NCI screening, biological replicate Set 1; normalized to on-plate 0.3% DMSO controls (n=16 per plate)
Where a name gives a salt, the structure may show the parent alone.
# Lookup of reported Split Luciferase Assay % Lum Set 1 keyed by entry
Numeric only. Scale: %

[[record]]
molecule = "CO[C@H]1C[C@@H]2CC[C@@H](C)[C@@](O)(O2)C(=O)C(=O)N2CCCC[C@H]2C(=O)O[C@H]([C@H](C)C[C@@H]2CC[C@@H](O)[C@H](OC)C2)CC(=O)[C@H](C)/C=C(\\C)[C@@H](O)[C@@H](OC)C(=O)[C@H](C)C[C@H](C)/C=C/C=C/C=C/1C"
outcome_measure = "Split Luciferase Assay % Lum Set 1"
numeric_value = 115.56

[[record]]
molecule = "CCN(CC)CCCC(C)Nc1nc(C)cc(Nc2ccc3nc(C)cc(N)c3c2)n1 (centres unmarked)"
outcome_measure = "Split Luciferase Assay % Lum Set 1"
numeric_value = 101.43

[[record]]
molecule = "Cc1nc2c(c(=O)[nH]1)CSCC2"
outcome_measure = "Split Luciferase Assay % Lum Set 1"
numeric_value = 86.21

[[record]]
molecule = "Nc1ccn([C@@H]2O[C@H](CO)[C@@H](O)C2(F)F)c(=O)n1 [Gemcitabine hydrochloride]"
outcome_measure = "Split Luciferase Assay % Lum Set 1"
numeric_value = 103.60

[[record]]
molecule = "Cc1cc(C(C)Nc2ccccc2)c2nc(N3CCOCC3)cc(=O)n2c1 (centres unmarked)"
outcome_measure = "Split Luciferase Assay % Lum Set 1"
numeric_value = 110.12


Challenge: Given the molecule C[C@@H](Oc1cc(-c2cnn(C3CCNCC3)c2)cnc1N)c1c(Cl)ccc(F)c1Cl [Crizotinib, reference compound] , what is its reported Split Luciferase Assay % Lum Set 1?
Response given: 35.11

Challenge: Given the molecule O=c1cc(N2CCOCC2)nc2c3ccccc3ccn12 , what is its reported Split Luciferase Assay % Lum Set 1?
Response given: 98.17

Challenge: Given the molecule COc1cc([C@@H]2c3cc4c(cc3[C@@H](O[C@@H]3O[C@@H]5CO[C@@H](c6cccs6)O[C@H]5[C@H](O)[C@H]3O)[C@H]3COC(=O)[C@H]23)OCO4)cc(OC)c1O [Teniposide] , what is its reported Split Luciferase Assay % Lum Set 1?
Response given: 119.91

Values compiled from paper PMC6858373.
